Test system: α7 integrin promoter
TEST_PROTOCOL: muscle cell-based assay: α7βgal+/− myoblasts/myotubes, LacZ reporter, β-galactosidase cleavage of FDG
Parameters: species or system mouse
APPLIED_CONDITIONS: Myoblasts, 0.5 uM
I would appreciate it if you labelled entries yes (1) when Result in α7+/− β-galactosidase assay is 0.07 or higher, otherwise no (0).

MOLECULE | EXPERIMENTAL_SYSTEM | LABEL
COc1c(Cl)cc(/C=C2\C(=O)Nc3ccccc32)cc1Cl [drawing 712] | α7 integrin promoter | yes (1)
Cc1cc(C)c(/C=C2\C(=O)Nc3ccccc32)[nH]1 [drawing 721] | α7 integrin promoter | no (0)
Cn1ccc(C(=O)Nc2cccnc2Cl)n1 [drawing 710] | α7 integrin promoter | yes (1)
CCOC(=O)C1CCCN(C(=O)CNS(=O)(=O)c2ccc(Br)s2)C1 (stereo not shown) [drawing 708] | α7 integrin promoter | no (0)
O=C1Nc2ccccc2/C1=C1\Nc2ccccc2C1=O [drawing 716] | α7 integrin promoter | no (0)
CCOC(=O)c1sc(=N)n(-c2ccc(OC)cc2)c1C [drawing 711] | α7 integrin promoter | yes (1)
COc1c(Cl)cc(/C=C2\C(=O)Nc3ccccc32)cc1Cl [drawing 713] | α7 integrin promoter | yes (1)
Cc1nnc(SCC(=O)c2ccc(Br)cc2)s1 [drawing 709] | α7 integrin promoter | yes (1)
Cc1cc(C)c(/C=C2\C(=O)Nc3ccccc32)[nH]1 [drawing 720] | α7 integrin promoter | no (0)
O=C1Nc2ccccc2/C1=C1/Nc2ccccc2/C1=N\O [drawing 726] | α7 integrin promoter | yes (1)
